Hello, the source for this data is ChEMBL document CHEMBL1126099, in case you need it.

Reported ED50 values are given for each entry in this list.
tested on: Rattus norvegicus; experiment: Effective in vivo peroral dose against induction of catalepsy in rats; assay type: functional; settings: Rattus norvegicus, po; read-out: ED50
observable: ED50

In [3]: df
Out[3]:
                                    molecule  assay_result
 0  OC(CCCN1CCN(c2ncc(Cl)cn2)CC1)c1ccc(F)cc1 (configuration not stated)     148 mg/kg
 1  OC(CCCN1CCN(c2ncc(Br)cn2)CC1)c1ccc(F)cc1 (configuration not stated)     108 mg/kg
 2  N#CC(CCCN1CCN(c2ncc(F)cn2)CC1)c1ccc(F)cc1 (configuration not stated)   > 100 mg/kg
 3  COc1nc(N2CCN(CCCC(O)c3ccc(F)cc3)CC2)ncc1F (configuration not stated)    79.2 mg/kg
 4     CN1CCN(C2=Nc3cc(Cl)ccc3Nc3ccccc32)CC1   > 200 mg/kg
 5  O=C(CCCN1CCN(c2ncc(F)cn2)CC1)c1ccc(F)cc1     144 mg/kg
 6  CCC(O)(CCCN1CCN(c2ncc(F)cn2)CC1)c1ccc(F)cc1 (configuration not stated)   > 100 mg/kg
 7     O=C(CCCN1CCN(c2ncccn2)CC1)c1ccc(F)cc1   > 100 mg/kg
 8  O[C@H](CCCN1CCN(c2ncc(F)cn2)CC1)c1ccc(F)cc1    11.4 mg/kg
 9  O=C(CCCN1CCC(O)(c2ccc(Cl)cc2)CC1)c1ccc(F)cc1    0.58 mg/kg
10  CC(O)(CCCN1CCN(c2ncc(F)cn2)CC1)c1ccc(F)cc1 (configuration not stated)   > 100 mg/kg
11  OC(CCCN1CCN(c2ncccn2)CC1)c1ccc(F)cc1 (configuration not stated)   > 100 mg/kg
